Assay: Cmax in Beagle dog at 1 mg/kg, iv
Format: ADME, organism-based, Canis lupus familiaris
Conditions: in vivo
observable: Cmax (ng/mL)
Answers are plain numbers, in ng/mL.

COC(=O)N1CC[C@H]2CC[C@@H](C(=O)N[C@@H](CCC(N)=O)C(=O)N[C@@H](Cc3ccc(F)c(F)c3)C(=O)N3CCC(CCC#Cc4cccc5c4CN(C4CCC(=O)NC4=O)C5=O)CC3)N2C(=O)[C@@H](NC(=O)c2cc3cc(C(F)(F)P(=O)(O)O)ccc3s2)C1 (some centres not stated); 8860

# next compound below
The recorded Cmax for CC(=O)N1CC[C@H]2CC[C@@H](C(=O)N[C@@H](CCC(N)=O)C(=O)N[C@@H](Cc3ccc(F)c(F)c3)C(=O)N3CCC(CCC#Cc4cccc5c4CN(C4CCC(=O)NC4=O)C5=O)CC3)N2C(=O)[C@@H](NC(=O)c2cc3cc(C(F)(F)P(=O)(O)O)ccc3s2)C1 (some centres not stated) is 8030

----------
Record form. Attribute: Activity. Fill in for each entry.
Biological target: Protein cereblon/Signal transducer and activator of transcription 3 (Mus musculus) (UniProt P42227+Q8C7D2)
Sequence (P42227 whole entry, looked up): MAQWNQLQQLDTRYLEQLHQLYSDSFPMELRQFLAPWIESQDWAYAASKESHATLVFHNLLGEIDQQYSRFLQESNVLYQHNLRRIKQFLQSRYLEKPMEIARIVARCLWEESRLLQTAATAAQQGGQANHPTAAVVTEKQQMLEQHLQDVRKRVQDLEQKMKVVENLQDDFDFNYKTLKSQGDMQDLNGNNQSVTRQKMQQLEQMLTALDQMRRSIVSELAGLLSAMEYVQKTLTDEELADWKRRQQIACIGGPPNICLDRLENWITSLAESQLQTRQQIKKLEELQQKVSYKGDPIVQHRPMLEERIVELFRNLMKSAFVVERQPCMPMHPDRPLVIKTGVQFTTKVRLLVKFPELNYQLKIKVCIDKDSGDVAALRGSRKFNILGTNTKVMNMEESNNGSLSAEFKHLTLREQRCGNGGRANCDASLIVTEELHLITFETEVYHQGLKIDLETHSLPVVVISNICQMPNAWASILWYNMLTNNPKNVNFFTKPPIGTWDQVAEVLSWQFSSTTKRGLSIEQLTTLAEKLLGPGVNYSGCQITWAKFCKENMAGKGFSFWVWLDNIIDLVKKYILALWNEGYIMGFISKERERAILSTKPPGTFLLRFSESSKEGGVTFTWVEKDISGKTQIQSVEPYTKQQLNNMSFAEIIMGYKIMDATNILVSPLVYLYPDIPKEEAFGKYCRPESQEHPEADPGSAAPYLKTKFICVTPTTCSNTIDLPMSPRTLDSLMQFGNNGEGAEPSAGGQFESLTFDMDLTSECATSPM
Sequence (Q8C7D2 whole entry, looked up): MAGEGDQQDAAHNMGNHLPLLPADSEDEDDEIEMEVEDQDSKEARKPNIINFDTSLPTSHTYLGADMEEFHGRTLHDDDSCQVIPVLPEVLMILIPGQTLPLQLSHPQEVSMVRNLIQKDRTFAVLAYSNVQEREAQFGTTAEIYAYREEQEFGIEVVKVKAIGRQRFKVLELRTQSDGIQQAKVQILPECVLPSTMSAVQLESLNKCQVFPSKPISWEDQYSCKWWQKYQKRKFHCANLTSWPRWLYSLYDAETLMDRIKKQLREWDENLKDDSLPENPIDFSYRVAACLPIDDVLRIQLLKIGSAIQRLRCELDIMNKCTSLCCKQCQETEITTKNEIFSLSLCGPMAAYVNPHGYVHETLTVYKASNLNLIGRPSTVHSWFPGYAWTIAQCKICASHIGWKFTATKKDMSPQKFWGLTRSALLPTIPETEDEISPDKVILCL
Experiment: In-vivo PROTAC activity at STAT3/CRBN in female CB17 SCID mouse assessed as reduction STAT3 level liver at 10 mg/kg, iv measured at 24 hrs by Western blot analysis
Type: functional, organism-based
Parameters: scale not given: the % may be the effect or the level left

CC(C)N1CC[C@H]2CC[C@@H](C(=O)N[C@@H](CCC(N)=O)C(=O)N[C@@H](Cc3ccc(F)c(F)c3)C(=O)N3CCC(CCC#Cc4cccc5c4CN(C4CCC(=O)NC4=O)C5=O)CC3)N2C(=O)[C@@H](NC(=O)c2cc3cc(C(F)(F)P(=O)(O)O)ccc3s2)C1 (stereo partly drawn); > 90%
CN1CC[C@H]2CC[C@@H](C(=O)N[C@@H](CCC(N)=O)C(=O)N[C@@H](Cc3ccc(F)cc3)C(=O)N3CCC(CCC#Cc4cccc5c4CN(C4CCC(=O)NC4=O)C5=O)CC3)N2C(=O)[C@@H](NC(=O)c2cc3cc(C(F)(F)P(=O)(O)O)ccc3s2)C1 (stereo partly drawn); 70%
CN1CC[C@H]2CC[C@@H](C(=O)N[C@@H](CCC(N)=O)C(=O)N[C@@H](Cc3ccccc3)C(=O)N3CCC(CCC#Cc4cccc5c4CN(C4CCC(=O)NC4=O)C5=O)CC3)N2C(=O)[C@@H](NC(=O)c2cc3cc(C(F)(F)P(=O)(O)O)ccc3s2)C1 (stereo partly drawn); 60%

Hi, could you look up Activity for each item in my list?
1. CN1CC[C@H]2CC[C@@H](C(=O)N[C@@H](CCC(N)=O)C(=O)N[C@@H](Cc3ccc(F)c(F)c3)C(=O)N3CCC(CCC#Cc4cccc5c4CN(C4CCC(=O)NC4=O)C5=O)CC3)N2C(=O)[C@@H](NC(=O)c2cc3cc(C(F)(F)P(=O)(O)O)ccc3s2)C1 (stereo partly drawn)
2. CC(=O)N1CC[C@H]2CC[C@@H](C(=O)N[C@@H](CCC(N)=O)C(=O)N[C@@H](Cc3ccc(F)c(F)c3)C(=O)N3CCC(CCC#Cc4cccc5c4CN(C4CCC(=O)NC4=O)C5=O)CC3)N2C(=O)[C@@H](NC(=O)c2cc3cc(C(F)(F)P(=O)(O)O)ccc3s2)C1 (stereo partly drawn)
3. COC(=O)N1CC[C@H]2CC[C@@H](C(=O)N[C@@H](CCC(N)=O)C(=O)N[C@@H](Cc3ccc(F)c(F)c3)C(=O)N3CCC(CCC#Cc4cccc5c4CN(C4CCC(=O)NC4=O)C5=O)CC3)N2C(=O)[C@@H](NC(=O)c2cc3cc(C(F)(F)P(=O)(O)O)ccc3s2)C1 (stereo partly drawn)

OUTPUT:
80%
> 90%
> 90%

The recorded Activity for CCN1CC[C@H]2CC[C@@H](C(=O)N[C@@H](CCC(N)=O)C(=O)N[C@@H](Cc3ccc(F)c(F)c3)C(=O)N3CCC(CCC#Cc4cccc5c4CN(C4CCC(=O)NC4=O)C5=O)CC3)N2C(=O)[C@@H](NC(=O)c2cc3cc(C(F)(F)P(=O)(O)O)ccc3s2)C1 (stereo partly drawn) is 80%
